Cited source for all entries: ChEMBL document CHEMBL1201862

- Test system: SF-295
- Method: NCI tumour cell line growth inhibition, 48 h
Calls of active or inactive are those of the source. Cut-off read from the data, not from the text of the source: active = GI50 up to about 1.1 µM and inactive = higher.
# GI50 per record follows

>  <Molecule>
Cc1cc2cc3c(cc2c(-c2ccc(N)cc2)n1)OCO3

>  <GI50>
34.2 µM (inactive)

$$$$
>  <Molecule>
O=C(CCN(C(=O)O)S(=O)(=O)c1ccc(NC(=O)c2ccccc2)cc1)Nc1ccccc1

>  <GI50>
> 100 µM (inactive)

$$$$
>  <Molecule>
Cc1cc(Cl)ccc1NC(=O)CC1SC(Nc2ccccc2Cl)=NC1=O (stereo not given)

>  <GI50>
52.6 µM (inactive)

$$$$
>  <Molecule>
COC(C)(C)[C@@H](O)[C@H]1C[C@H](C)[C@@]2(CC[C@]3(C)[C@@H]2CC[C@@H]2[C@@]4(C)CC[C@@H](OC(C)=O)C(C)(C)[C@@H]4C[C@@H](OC4OC(COC(C)=O)C(O)C(O)C4O)[C@]23C)O1 (stereo not given in full)

>  <GI50>
4.51 µM (inactive)

$$$$
>  <Molecule>
O=C1C(=O)N(c2ccc(Cl)cc2)C(=O)C(=O)C1c1nc2ccccc2o1

>  <GI50>
> 100 µM (inactive)

$$$$
>  <Molecule>
COc1cc(C[S+]2CCCC2)c(SC)cc1C[S+]1CCCC1

>  <GI50>
> 100 µM (inactive)

$$$$
>  <Molecule>
CCO/C=C(\C(=O)OC)S(=O)(=O)c1ccc(C)cc1

>  <GI50>
> 100 µM (inactive)

$$$$
>  <Molecule>
Cc1cc(C)nc(NS(=O)(=O)c2ccc(Nc3c4ccccc4nc4c(C(=O)N5CCN(CCO)CC5)ccc(Cl)c34)cc2)n1

>  <GI50>
> 100 µM (inactive)

$$$$
>  <Molecule>
O=C1c2cc(-c3ccccc3)cnc2S(=O)(=O)N1c1ccc(Br)cc1

>  <GI50>
20 µM (inactive)

$$$$
>  <Molecule>
O=c1cc(/N=N/c2ccc(O)cc2)[nH]c(=O)[nH]1

>  <GI50>
> 100 µM (inactive)

$$$$

----------
The entries below are paired with their reported GI50.
- Test system: NCI-H23
- Method: NCI tumour cell line growth inhibition, 48 h
Activity calls are given as the source filed them. No stated cut-off is given here; in the data, active = GI50 up to about 1.1 µM and inactive = higher.

>  <Compound>
[N-]=[N+]=CC(=O)C1CCCN1C(=O)c1ccccc1 (stereo unspecified)

>  <GI50>
> 10 µM (inactive)

$$$$
>  <Compound>
CC1(C)N=C(N)N=C(N)N1c1cccc(OCc2cccc([N+](=O)[O-])c2)c1

>  <GI50>
7.26 µM (inactive)

$$$$
>  <Compound>
CC(C)(C)C1CCC(O)(c2ccccc2)CC1 (stereo unspecified)

>  <GI50>
> 100 µM (inactive)

$$$$
>  <Compound>
CC(=O)n1nc(-c2nc3ccccc3nc2Cl)cc1Cl

>  <GI50>
6.24 µM (inactive)

$$$$
>  <Compound>
CC(C)(O)[C@@H]1CC[C@](C)(C2[C@@H](O)C[C@@]3(C)C4C[C@H](OC5OCC(O)C(O)C5O)[C@H]5C(C)(C)[C@@H](OC6OCC(O)C(O)C6OC6OCC(O)C(O)C6O)CC[C@@]56C[C@@]46CC[C@]23C)O1 (stereo partly specified)

>  <GI50>
> 100 µM (inactive)

$$$$
>  <Compound>
O=C(NC(Cc1ccccc1)P(=O)(O)c1ccccc1)OCc1ccccc1 (stereo unspecified)

>  <GI50>
> 100 µM (inactive)

$$$$
